- Test system: RAW264.7
- assay_summary: Antiinflammatory activity in LPS-induced mouse RAW264.7 cells assessed as inhibition of TNF-alpha expression at 1 microg/ml preincubated with compound for 24 hrs followed by LPS addition for 6 hrs by ELISA method
- Type: functional, cell-based
- experimental_context: dose 1.0 µg/ml, time 30.0 hrs
The source made the active and inactive calls. No cut-off for these calls is given here.
readout: Activity

[[record]]
structure_string = "COCCOCCOCCOCCOCCSC[C@@H](NC(=O)[C@@H](CCC(N)=O)NC(=O)[C@H](N)CCSC)C(=O)N[C@H](CC(N)=O)C(=O)N[C@H](CO)C(N)=O"
measured_value = "Active"

[[record]]
structure_string = "COCCOCCOCCOCCOCCOCCOCCSC[C@@H](NC(=O)[C@@H](CCC(N)=O)NC(=O)[C@H](N)CCSC)C(=O)N[C@H](CC(N)=O)C(=O)N[C@H](CO)C(N)=O"
measured_value = "Active"

[[record]]
structure_string = "COCCOCCOCCSC[C@@H](NC(=O)[C@@H](CCC(N)=O)NC(=O)[C@H](N)CCSC)C(=O)N[C@H](CC(N)=O)C(=O)N[C@H](CO)C(N)=O"
measured_value = "Active"


====

- assay_summary: Cytotoxicity against mouse RAW264.7 cells assessed as cell viability at 1 microg/ml measured after 24 hrs by CCK-8 assay
- Format: toxicity, cell-based
- experimental_context: at 1 µg/mL, read-out: Activity
Positions of bridges follow the written chain, without caps; N, C: chain ends. Residues, ends and D or L forms follow the SMILES beside them. *: point of attachment. Propanoyl(3-(MeO(CH2CH2O)2)) = COCCOCCOCCC(=O)*
Let's look at some molecules and their measured viability at 24 h, 1 microg/ml.

Some molecules with recorded viability at 24 h, 1 microg/ml:
[[record]]
molecule = "CSCC[C@@H](N)C(=O)N[C@@H](CCC(N)=O)C(=O)N[C@@H](CS)C(=O)N[C@@H](CC(N)=O)C(=O)N[C@@H](CO)C(N)=O"
readout = "viability at 24 h, 1 microg/ml"
measured_value = "86.8%"

[[record]]
molecule = "COCCOCCOCCC(=O)N[C@@H](CCSC)C(=O)N[C@@H](CCC(N)=O)C(=O)N[C@@H](CS)C(=O)N[C@@H](CC(N)=O)C(=O)N[C@@H](CO)C(N)=O ({Propanoyl(3-(MeO(CH2CH2O)2))}-MQCNS-NH2)"
readout = "viability at 24 h, 1 microg/ml"
measured_value = "~80%"

[[record]]
molecule = "CSCC[C@H](N)C(=O)N[C@@H](CCC(N)=O)C(=O)N[C@H](CS)C(=O)N[C@@H](CC(N)=O)C(=O)N[C@@H](CO)C(N)=O"
readout = "viability at 24 h, 1 microg/ml"
measured_value = "~80%"

[[record]]
molecule = "CSCC[C@H](N)C(=O)N[C@H]1CCC(=O)NCCCC[C@@H](C(=O)N[C@@H](CO)C(N)=O)NC(=O)[C@H](CS)NC1=O (H-MECKS-NH2; lactam 2-4)"
readout = "viability at 24 h, 1 microg/ml"
measured_value = "~80%"

[[record]]
molecule = "COCCOCCOCCOCCOCCOCCOCCSC[C@@H](NC(=O)[C@@H](CCC(N)=O)NC(=O)[C@H](N)CCSC)C(=O)N[C@H](CC(N)=O)C(=O)N[C@H](CO)C(N)=O"
readout = "viability at 24 h, 1 microg/ml"
measured_value = "88.8%"


Given CSCC[C@@H](N)C(=O)N[C@H]1CC(=O)NCCC[C@@H](C(=O)N[C@@H](CO)C(N)=O)NC(=O)[C@H](CS)NC1=O , state its recorded viability at 24 h, 1 microg/ml.
~80%
